Data origin: patent US20230411006A1

- assay overview: Tacrolimus concentrations and interdose AUC in ISBA requests of renal transplant patients
- setup conditions: human, in vivo, oral, Median; TAD; Train (n = 3708); read-out: Interdose AuC
value kind: AUC
I'd appreciate it if you wrote the number followed by its unit.

Req: Which AUC value is on record for "C=CC[C@@H]1/C=C(\C)C[C@H](C)C[C@H](OC)[C@H]2O[C@@](O)(C(=O)C(=O)N3CCCC[C@H]3C(=O)O[C@H](/C(C)=C/[C@@H]3CC[C@@H](O)[C@H](OC)C3)[C@H](C)[C@@H](O)CC1=O)[C@H](C)C[C@@H]2OC" ?
Resp: 128 ng·h/mL

---

- assay overview: Tacrolimus concentrations and interdose AUC in ISBA requests of renal transplant patients
- setup conditions: human, in vivo, oral, Median; OAD; Test (n = 394); read-out: Interdose AuC
value kind: AUC (ng·h/mL)
Kindly provide the numeric value in ng·h/mL only, without the unit symbol.

Req: Which AUC value is on record for "C=CC[C@@H]1/C=C(\C)C[C@H](C)C[C@H](OC)[C@H]2O[C@@](O)(C(=O)C(=O)N3CCCC[C@H]3C(=O)O[C@H](/C(C)=C/[C@@H]3CC[C@@H](O)[C@H](OC)C3)[C@H](C)[C@@H](O)CC1=O)[C@H](C)C[C@@H]2OC" ?
Resp: 222

---

- assay overview: Tacrolimus concentrations and interdose AUC in ISBA requests of renal transplant patients
- setup conditions: human, in vivo, oral, Maximum; TAD; Test (n = 1236); read-out: Concentration C3 at 3 h
- From the text: Tacrolimus requests from ISBA website were extracted and cleaned using the tidyverse framework. Patient with a renal transplantation and tacrolimus concentrations measured using HPLC methods were selected. […]
value kind: concentration at 3 h (µg/mL)
Kindly provide the numeric value in µg/mL only, without the unit symbol.

Req: Which concentration at 3 h value is on record for "C=CC[C@@H]1/C=C(\C)C[C@H](C)C[C@H](OC)[C@H]2O[C@@](O)(C(=O)C(=O)N3CCCC[C@H]3C(=O)O[C@H](/C(C)=C/[C@@H]3CC[C@@H](O)[C@H](OC)C3)[C@H](C)[C@@H](O)CC1=O)[C@H](C)C[C@@H]2OC" ?
Resp: 0.0169

---

- assay overview: Tacrolimus concentrations and interdose AUC in ISBA requests of renal transplant patients
- setup conditions: human, in vivo, oral, Maxmum; OAD; Train (n = 1184); read-out: Concentration C1 at 1 h
value kind: concentration at 1 h (ng/mL)
Kindly provide the numeric value in ng/mL only, without the unit symbol.

Req: Which concentration at 1 h value is on record for "C=CC[C@@H]1/C=C(\C)C[C@H](C)C[C@H](OC)[C@H]2O[C@@](O)(C(=O)C(=O)N3CCCC[C@H]3C(=O)O[C@H](/C(C)=C/[C@@H]3CC[C@@H](O)[C@H](OC)C3)[C@H](C)[C@@H](O)CC1=O)[C@H](C)C[C@@H]2OC" ?
Resp: 18.4

---

- assay overview: Tacrolimus concentrations and interdose AUC in ISBA requests of renal transplant patients
- setup conditions: human, in vivo, oral, Maximum; OAD; Train (n = 1184); read-out: Concentration C3 at 3 h
- Source text: Tacrolimus requests from ISBA website were extracted and cleaned using the tidyverse framework. Patient with a renal transplantation and tacrolimus concentrations measured using HPLC methods were selected. […]
value kind: concentration at 3 h
I'd appreciate it if you wrote the number followed by its unit.

Req: Which concentration at 3 h value is on record for "C=CC[C@@H]1/C=C(\C)C[C@H](C)C[C@H](OC)[C@H]2O[C@@](O)(C(=O)C(=O)N3CCCC[C@H]3C(=O)O[C@H](/C(C)=C/[C@@H]3CC[C@@H](O)[C@H](OC)C3)[C@H](C)[C@@H](O)CC1=O)[C@H](C)C[C@@H]2OC" ?
Resp: 18.4 ng/mL
